Listed here: items and their measured inhibition at 0.01 µM.
molecular target: PI3K-δ (PI3K(p1108/p857) (h)) (Homo sapiens, UniProt O00329); test: Evaluation of inhibitory activity against PI3K-δ (HTRF kinase assay); assay type: biochemical; details: compound concentration 0.01 μM; read-out: EXP_VALUE(% Inhibition) PI3K-δ 0.01 μM
Sequence (O00329 whole entry): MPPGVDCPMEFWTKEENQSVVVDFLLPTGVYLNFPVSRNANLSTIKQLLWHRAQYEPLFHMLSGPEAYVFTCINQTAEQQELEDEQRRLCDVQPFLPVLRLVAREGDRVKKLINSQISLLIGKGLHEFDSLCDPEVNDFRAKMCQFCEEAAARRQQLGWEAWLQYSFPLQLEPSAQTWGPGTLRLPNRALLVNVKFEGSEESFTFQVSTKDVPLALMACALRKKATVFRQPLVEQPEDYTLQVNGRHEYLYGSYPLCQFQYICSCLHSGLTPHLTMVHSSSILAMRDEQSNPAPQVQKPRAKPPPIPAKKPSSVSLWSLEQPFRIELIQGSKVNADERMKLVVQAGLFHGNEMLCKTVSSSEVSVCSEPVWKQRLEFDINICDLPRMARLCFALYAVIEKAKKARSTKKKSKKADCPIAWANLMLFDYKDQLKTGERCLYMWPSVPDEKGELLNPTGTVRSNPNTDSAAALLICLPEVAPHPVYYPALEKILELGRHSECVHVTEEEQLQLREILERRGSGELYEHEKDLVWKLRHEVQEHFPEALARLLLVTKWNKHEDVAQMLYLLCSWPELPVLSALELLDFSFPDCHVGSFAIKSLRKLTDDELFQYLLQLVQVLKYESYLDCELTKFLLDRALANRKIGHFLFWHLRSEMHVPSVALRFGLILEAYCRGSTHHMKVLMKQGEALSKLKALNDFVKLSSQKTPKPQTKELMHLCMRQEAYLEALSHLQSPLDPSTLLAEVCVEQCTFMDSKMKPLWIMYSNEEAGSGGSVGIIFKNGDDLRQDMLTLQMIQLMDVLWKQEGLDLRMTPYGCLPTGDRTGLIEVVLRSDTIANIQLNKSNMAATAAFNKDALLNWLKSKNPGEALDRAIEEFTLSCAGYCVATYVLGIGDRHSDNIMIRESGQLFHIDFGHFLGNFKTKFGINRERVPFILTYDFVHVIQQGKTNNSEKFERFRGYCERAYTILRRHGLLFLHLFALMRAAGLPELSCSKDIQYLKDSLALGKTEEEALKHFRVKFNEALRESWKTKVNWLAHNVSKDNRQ
Sequence (P27986 whole entry partner): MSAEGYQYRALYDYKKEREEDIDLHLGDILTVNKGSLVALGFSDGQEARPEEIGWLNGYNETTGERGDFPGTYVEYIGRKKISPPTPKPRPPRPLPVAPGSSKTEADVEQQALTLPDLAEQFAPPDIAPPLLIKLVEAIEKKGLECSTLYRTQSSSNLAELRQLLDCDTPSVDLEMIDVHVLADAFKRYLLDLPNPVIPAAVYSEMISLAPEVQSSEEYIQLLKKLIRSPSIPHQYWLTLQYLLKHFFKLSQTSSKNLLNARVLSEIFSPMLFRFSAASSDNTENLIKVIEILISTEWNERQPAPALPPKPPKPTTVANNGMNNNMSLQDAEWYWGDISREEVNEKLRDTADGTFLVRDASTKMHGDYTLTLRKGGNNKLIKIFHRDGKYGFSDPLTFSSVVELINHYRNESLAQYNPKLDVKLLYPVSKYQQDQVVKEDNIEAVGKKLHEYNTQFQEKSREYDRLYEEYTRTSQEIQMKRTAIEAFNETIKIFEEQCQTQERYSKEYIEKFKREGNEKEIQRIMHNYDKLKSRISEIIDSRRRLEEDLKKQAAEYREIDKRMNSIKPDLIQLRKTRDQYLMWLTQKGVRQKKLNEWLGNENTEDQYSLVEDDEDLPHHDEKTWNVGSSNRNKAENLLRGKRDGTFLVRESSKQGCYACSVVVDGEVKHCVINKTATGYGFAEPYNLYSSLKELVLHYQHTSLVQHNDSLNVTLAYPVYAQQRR
Hi! Could you send only the number? It should be in %, unit omitted.

                                   molecule                             tested_target  readout_unit  readout_number
0  CNC(=O)c1ccc(-c2cccc3c(Cl)c([C@H](C)Nc4ncnc5[nH]ccc(=O)c45)n(-c4ccccc4)c(=O)c23)cc1 [Example 167]  PI3K-δ (PI3K(p1108/p857) (h)) (Homo sapiens, UniProt O00329)             %              44
1  COc1cc(-c2cccc3c(Cl)c([C@H](C)Nc4ncnc5c4c(=O)ccn5-c4ccnc(OC)c4)n(-c4ccccc4)c(=O)c23)ccn1 [Example 149]  PI3K-δ (PI3K(p1108/p857) (h)) (Homo sapiens, UniProt O00329)             %               2
2  C[C@H](Nc1ncnc2[nH]ccc(=O)c12)c1c(Cl)c2cccc(NS(=O)(=O)CC(F)(F)F)c2c(=O)n1-c1ccccc1 [Example 302]  PI3K-δ (PI3K(p1108/p857) (h)) (Homo sapiens, UniProt O00329)             %              16
3  C[C@H](Nc1ncnc2[nH]ccc(=O)c12)c1c(Cl)c2cccc(-c3cc[nH]n3)c2c(=O)n1-c1ccccc1 [Example 226]  PI3K-δ (PI3K(p1108/p857) (h)) (Homo sapiens, UniProt O00329)             %              83
4  C[C@H](Nc1ncnc2[nH]ccc(=O)c12)c1c(Cl)c2cccc(N3CCC4CCCCC4C3)c2c(=O)n1-c1ccccc1 (stereo partly drawn) [Example 328]  PI3K-δ (PI3K(p1108/p857) (h)) (Homo sapiens, UniProt O00329)             %              17

Next up:
Request: Tell me measured inhibition at 0.01 µM for C[C@H](Nc1ncnc2[nH]ccc(=O)c12)c1c(Cl)c2cccc(-c3cccc(F)c3Cl)c2c(=O)n1-c1ccccc1 [Example 106] please.
Response: 53
